# Test system: NAMALWA (Burkitt's Lymphoma)
# measurement_protocol: Bliss excess, mean over the matrix (fraction); higher = more synergy
Catalogue of Bliss excess readings, one per entry.
Respond using a number only.

- C=CCn1c(=O)c2cnc(Nc3ccc(N4CCN(C)CC4)cc3)nc2n1-c1cccc(C(C)(C)O)n1 [AZD1775] + O=C(c1cc(Cc2n[nH]c(=O)c3ccccc23)ccc1F)N1CCN(C(=O)C2CC2)CC1 [Olaparib] (first compound max 1 µM, partner max 10 µM): -0.0133
- COc1nnc2ccc(N3CCC(c4ccc(OCCN5CCN(C)C(=O)[C@H]5C)cc4)CC3)nn12 [AZD5153] + Cc1c2c(nn1C)CSCc1cc(n(C)n1)CSc1cc(c3ccccc3c1)OCCCc1c(C(=O)O)n(C)c3c-2c(Cl)ccc13 [AZD5991] (first compound max 1 µM, 7x7, partner max 1 µM): -0.0536
- Cc1c2c(nn1C)CSCc1cc(n(C)n1)CSc1cc(c3ccccc3c1)OCCCc1c(C(=O)O)n(C)c3c-2c(Cl)ccc13 [AZD5991] + CC(=O)O[C@H]1C(=O)[C@@]2(C)[C@H]([C@H](OC(=O)c3ccccc3)[C@]3(O)C[C@H](OC(=O)[C@H](O)[C@@H](NC(=O)c4ccccc4)c4ccccc4)C(C)=C1C3(C)C)[C@]1(OC(C)=O)CO[C@@H]1C[C@@H]2O [Paclitaxel] (first compound max 1 µM, 7x7, partner max 3 µM): 0.0041
- NC1(C(=O)N[C@@H](CCO)c2ccc(Cl)cc2)CCN(c2ncnc3[nH]ccc23)CC1 [Capivasertib] + CC(C)n1c(=O)n(C)c2cnc3cc(F)c(-c4ccc(OCCCN5CCCCC5)nc4)cc3c21 [AZD1390] (first compound max 10 µM, 7x7, partner max 0.3 µM): 0.0005
- CC(=O)c1c(C)c2cnc(Nc3ccc(N4CCNCC4)cn3)nc2n(C2CCCC2)c1=O [Palbociclib] + CC1(C)CCC(CN2CCN(c3ccc(C(=O)NS(=O)(=O)c4ccc(NCC5CCOCC5)c([N+](=O)[O-])c4)c(Oc4cnc5[nH]ccc5c4)c3)CC2)=C(c2ccc(Cl)cc2)C1 [Venetoclax] (first compound max 10 µM, 7x7, partner max 1 µM): -0.0648
- CN(C)CCCOc1ccc(-c2ccc3ncc4c(c3c2)n(C2CCOCC2)c(=O)n4C)cn1 [AZD0156] + C[C@@H]1COCCN1C2=NC(=NC(=C2)C3(CC3)[S@](=N)(=O)C)C4=C5C=CNC5=NC=C4 [AZD6738] (first compound max 1 µM, 7x7, partner max 10 µM): 0.0342

Please look up its Bliss excess: C[C@@H]1COCCN1c1cc(C2([S@](C)(=N)=O)CC2)nc(-c2ccnc3[nH]ccc23)n1 [AZD6738] + C1CC(C1)(C(=O)[O-])C(=O)[O-].N.N.[Pt+2] [Carboplatin] (first compound max 10 µM, 7x7, partner max 10 µM) -0.0293

* * *

# Test system: NCI-H596 (Other Solid Carcinomas)
# measurement_protocol: Bliss excess, mean over the matrix (fraction); higher = more synergy
measured_quantity: Bliss excess
Number, no unit, nothing else.

* Cc1c2c(nn1C)CSCc1cc(n(C)n1)CSc1cc(c3ccccc3c1)OCCCc1c(C(=O)O)n(C)c3c-2c(Cl)ccc13 [AZD5991] + Cc1cc2ncnn2cc1Nc1ncc2c(n1)n(C1CCOCC1)c(=O)n2C [AZD7648] (first compound max 1 µM, 7x7, partner max 10 µM) | 0.0056
* Cc1c2c(nn1C)CSCc1cc(n(C)n1)CSc1cc(c3ccccc3c1)OCCCc1c(C(=O)O)n(C)c3c-2c(Cl)ccc13 [AZD5991] + C1CN(CCC1(C(=O)N[C@@H](CCO)C2=CC=C(C=C2)Cl)N)C3=NC=NC4=C3C=CN4 [Capivasertib] (first compound max 1 µM, 7x7, partner max 3 µM) | -0.0035
* CCN(CCO)CCCOc1ccc2c(Nc3cc(CC(=O)Nc4cccc(F)c4)[nH]n3)ncnc2c1 [AZD2811] + O=C(c1cc(Cc2n[nH]c(=O)c3ccccc23)ccc1F)N1CCN(C(=O)C2CC2)CC1 [Olaparib] (first compound max 1 µM, 7x7, partner max 10 µM) | -0.0372
* CN(CCO)CC[C@H](CSc1ccccc1)Nc1ccc(S(=O)(=O)NC(=O)c2ccc(N3CCC([C@@H](O)c4ccccc4-c4ccc(Cl)cc4)CC3)cc2)cc1S(=O)(=O)C(F)(F)F [AZD4320] + CCN(CCO)CCCOc1ccc2c(Nc3cc(CC(=O)Nc4cccc(F)c4)[nH]n3)ncnc2c1 [AZD2811] (first compound max 1 µM, 7x7, partner max 1 µM) | -0.0631
* CN(CCO)CC[C@H](CSc1ccccc1)Nc1ccc(S(=O)(=O)NC(=O)c2ccc(N3CCC([C@@H](O)c4ccccc4-c4ccc(Cl)cc4)CC3)cc2)cc1S(=O)(=O)C(F)(F)F [AZD4320] + C[C@@H]1COCCN1C2=NC(=NC(=C2)C3(CC3)[S@](=N)(=O)C)C4=C5C=CNC5=NC=C4 [AZD6738] (first compound max 1 µM, 7x7, partner max 10 µM) | -0.047

// returns reported Bliss excess for input COc1nnc2ccc(N3CCC(c4ccc(OCCN5CCN(C)C(=O)[C@H]5C)cc4)CC3)nn12 [AZD5153] + CN(CC[C@H](CSC1=CC=CC=C1)NC2=C(C=C(C=C2)S(=O)(=O)NC(=O)C3=CC=C(C=C3)N4CCC(CC4)[C@H](C5=CC=CC=C5C6=CC=C(C=C6)Cl)O)S(=O)(=O)C(F)(F)F)CCO [AZD4320] (first compound max 1 µM, 7x7, partner max 1 µM) 0.0028

Which Bliss excess value belongs to CC1(C)CCC(CN2CCN(c3ccc(C(=O)NS(=O)(=O)c4ccc(NCC5CCOCC5)c([N+](=O)[O-])c4)c(Oc4cnc5[nH]ccc5c4)c3)CC2)=C(c2ccc(Cl)cc2)C1 [Venetoclax] + C=CCn1c(=O)c2cnc(Nc3ccc(N4CCN(C)CC4)cc3)nc2n1-c1cccc(C(C)(C)O)n1 [AZD1775] (first compound max 1 µM, partner max 1 µM) ? -0.0783

Bench note: what Bliss excess did COc1nnc2ccc(N3CCC(c4ccc(OCCN5CCN(C)C(=O)[C@H]5C)cc4)CC3)nn12 [AZD5153] + CC1(C)CCC(CN2CCN(c3ccc(C(=O)NS(=O)(=O)c4ccc(NCC5CCOCC5)c([N+](=O)[O-])c4)c(Oc4cnc5[nH]ccc5c4)c3)CC2)=C(c2ccc(Cl)cc2)C1 [Venetoclax] (first compound max 1 µM, 7x7, partner max 1 µM) show? -0.0701

If you can, please state the reported Bliss excess value of Cc1cc2ncnn2cc1Nc1ncc2c(n1)n(C1CCOCC1)c(=O)n2C [AZD7648] + C[C@@H]1COCCN1C2=NC(=NC(=C2)C3(CC3)[S@](=N)(=O)C)C4=C5C=CNC5=NC=C4 [AZD6738] (first compound max 10 µM, 7x7, partner max 10 µM) . -0.0318

* * *

# Test system: PA-TU-8988T (Pancreatic Carcinoma)
# measurement_protocol: Bliss excess, mean over the matrix (fraction); higher = more synergy
Items are presented alongside their recorded Bliss excess.

* C[C@@H](c1ccc2nccn2c1)n1nnc2ncc(-c3cnn(C)c3)nc21 [Savolitinib] + Cc1c2c(nn1C)CSCc1cc(n(C)n1)CSc1cc(c3ccccc3c1)OCCCc1c(C(=O)O)n(C)c3c-2c(Cl)ccc13 [AZD5991] (first compound max 1 µM, 7x7, partner max 1 µM) | -0.0205

Which Bliss excess is reported for this compound? COc1cccc(OCCCN)c1-c1cc(Nc2cnc(C#N)cn2)n[nH]1 [Prexasertib] + CN(C)CCCOc1ccc(-c2ccc3ncc4c(c3c2)n(C2CCOCC2)c(=O)n4C)cn1 [AZD0156] (first compound max 1 µM, 7x7, partner max 1 µM) 0.0179

* * *

# System: ES6 (Ewing's Sarcoma)
# measurement_protocol: combination Emax (second highest fraction inhibited in the dose matrix, 72 h); higher = more inhibition; extreme values may be limits of the assay
Listing of recorded combination Emax by entry.

* Cn1cnc2c(F)c(Nc3ccc(Br)cc3Cl)c(C(=O)NOCCO)cc21 [Selumetinib] + CC(C)n1c(=O)n(C)c2cnc3cc(F)c(-c4ccc(OCCCN5CCCCC5)nc4)cc3c21 [AZD1390] (first compound max 10 µM, 7x7, partner max 0.3 µM) | 0.147

// next entry
// query combination Emax value for entry Cc1nc(Nc2ncc(C(=O)Nc3c(C)cccc3Cl)s2)cc(N2CCN(CCO)CC2)n1 [Dasatinib] + CC(=O)Nc1cccc(-n2c(=O)n(C3CC3)c(=O)c3c(Nc4ccc(I)cc4F)n(C)c(=O)c(C)c32)c1 [Trametinib] (first compound max 2 µM, 7x7, partner max 1 µM) 0.439

* * *

# System: NCI-H1963 (Small Cell Lung Carcinoma)
# measurement_protocol: Bliss excess, mean over the matrix (fraction); higher = more synergy
measured_quantity: Bliss excess
Respond numerically, and do not add a unit to the figure.

• Cc1c2c(nn1C)CSCc1cc(n(C)n1)CSc1cc(c3ccccc3c1)OCCCc1c(C(=O)O)n(C)c3c-2c(Cl)ccc13 [AZD5991] + C=CCn1c(=O)c2cnc(Nc3ccc(N4CCN(C)CC4)cc3)nc2n1-c1cccc(C(C)(C)O)n1 [AZD1775] (first compound max 1 µM, partner max 1 µM) = 0.0006

With those in mind, consider the next compound.
// lookup Bliss excess for NC1(C(=O)N[C@@H](CCO)c2ccc(Cl)cc2)CCN(c2ncnc3[nH]ccc23)CC1 [Capivasertib] + Cn1cnc2c(F)c(Nc3ccc(Br)cc3Cl)c(C(=O)NOCCO)cc21 [Selumetinib] (first compound max 10 µM, 7x7, partner max 10 µM) 0.0023
